B1: TRIM9 (parent)
chain: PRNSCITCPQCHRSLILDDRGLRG

- Variants of: B1
- Protocol: protein stability index of a GFP-peptide fusion (GPS, HEK-293T) (PSI 1-6); higher = more stable;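 also: lentivirally expressed fusions sorted by FACS into six bins by GFP to DsRed ratio, PSI derived from sequencing read proportions per bin multiplied by bin number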
- Condition summary: c terminus: a fixed tail appended
For each record, write down the corresponding protein stability index.

## Input Supply recorded protein stability index for `PRNSCITCPQCHRSLILDDRGLHG` here.
## Output 2.05

## Input Supply recorded protein stability index for `PRNSCITCPQCSRSLILDDRGLRG` here.
## Output 2.04

## Input Supply recorded protein stability index for `PRNSCITCPQCHKSLILDDRGLRG` here.
## Output 1.95

## Input Supply recorded protein stability index for `TRNSCITCPQCHRSLILDDRGLRG` here.
## Output 1.97

## Input Supply recorded protein stability index for `PRNSCITCPCCHRSLILDDRGLRG` here.
## Output 1.95

## Input Supply recorded protein stability index for `PRNSCITCPICHRSLILDDRGLRG` here.
## Output 2.05

## Input Supply recorded protein stability index for `PRFSCITCPQCHRSLILDDRGLRG` here.
## Output 1.96

## Input Supply recorded protein stability index for `PRNSCITCPQCHRSLIIDDRGLRG` here.
## Output 2.05

## Input Supply recorded protein stability index for `PRNSCICCPQCHRSLILDDRGLRG` here.
## Output 2.05

## Input Supply recorded protein stability index for `PRNSTITCPQCHRSLILDDRGLRG` here.
## Output 2.02

The origin of these recorded values is the supplement of paper PMC10567573.
